target: Grb2 SH2 (UniProt P62993); test: SH2 binding enrichment of the phosphorylated peptide, bacterial display (enrichment ratio); higher = better substrate or ligand; peptides without Tyr show the background
measurementType: SH2 binding enrichment

INSERT INTO results (sequence, measurementtype, readoutvalue) VALUES
  ('SFLFRYADDSF [RAB3C_Y50]', 'SH2 binding enrichment', 0.988),
  ('ENFSEYQEIAV [HEMGN_Y150]', 'SH2 binding enrichment', 0.98),
  ('GTQCSYLLSRK [UGT3A1_Y123]', 'SH2 binding enrichment', 1.03),
  ('IDDNEYAYLKA [HNF4A_Y286]', 'SH2 binding enrichment', 0.863),
  ('TVQVAYFTMMM [SPATA17_Y83_YF]', 'SH2 binding enrichment', 0.745),
  ('LRYDVYGGENE [STOX1_Y610_E608D]', 'SH2 binding enrichment', 0.925),
  ('QFRFIYMAVQH [PTPN11_Y515_YF]', 'SH2 binding enrichment', 0.948),
  ('LGKGSYAKVKS [TSSK2_Y23]', 'SH2 binding enrichment', 0.777),
  ('RQGKDYVGAIP [KDR_Y951]', 'SH2 binding enrichment', 0.818),
  ('AVISVYDLVAF [PSEN1_Y256_V261F]', 'SH2 binding enrichment', 0.912);

[P] CTHDLYMFMRE [FGFR3_Y724_I726F]
[Q] ARMTNCGLPRF [TSPAN12_Y138_Y138C_YF]
[R] CLGNQYVNVMN [SLC3A1_Y461_R456C]
Ask: Sort the sequences on SH2 binding enrichment; start with the lowest figure. Please respond by ranking the labels in the order requested.
Reply: P, Q, R

[A] NACGLYHTMNG [GATA5_Y216_K218T]
[B] LNPLVYTLRNA [OR4C12_Y285_V283L]
Ask: For the pair A and B , which entry has the numerically smaller recorded SH2 binding enrichment? Let me know the label of the one you choose.
Reply: A
(A: 0.849, B: 1.22)

* * *

Examples of sequences with documented phosphorylation enrichment follow.
molecular target: MERTK (UniProt Q12866); experiment: phosphorylation enrichment, bacterial display (enrichment ratio); higher = better substrate or ligand; peptides without Tyr show the background
Sequence (Q12866 whole entry, looked up): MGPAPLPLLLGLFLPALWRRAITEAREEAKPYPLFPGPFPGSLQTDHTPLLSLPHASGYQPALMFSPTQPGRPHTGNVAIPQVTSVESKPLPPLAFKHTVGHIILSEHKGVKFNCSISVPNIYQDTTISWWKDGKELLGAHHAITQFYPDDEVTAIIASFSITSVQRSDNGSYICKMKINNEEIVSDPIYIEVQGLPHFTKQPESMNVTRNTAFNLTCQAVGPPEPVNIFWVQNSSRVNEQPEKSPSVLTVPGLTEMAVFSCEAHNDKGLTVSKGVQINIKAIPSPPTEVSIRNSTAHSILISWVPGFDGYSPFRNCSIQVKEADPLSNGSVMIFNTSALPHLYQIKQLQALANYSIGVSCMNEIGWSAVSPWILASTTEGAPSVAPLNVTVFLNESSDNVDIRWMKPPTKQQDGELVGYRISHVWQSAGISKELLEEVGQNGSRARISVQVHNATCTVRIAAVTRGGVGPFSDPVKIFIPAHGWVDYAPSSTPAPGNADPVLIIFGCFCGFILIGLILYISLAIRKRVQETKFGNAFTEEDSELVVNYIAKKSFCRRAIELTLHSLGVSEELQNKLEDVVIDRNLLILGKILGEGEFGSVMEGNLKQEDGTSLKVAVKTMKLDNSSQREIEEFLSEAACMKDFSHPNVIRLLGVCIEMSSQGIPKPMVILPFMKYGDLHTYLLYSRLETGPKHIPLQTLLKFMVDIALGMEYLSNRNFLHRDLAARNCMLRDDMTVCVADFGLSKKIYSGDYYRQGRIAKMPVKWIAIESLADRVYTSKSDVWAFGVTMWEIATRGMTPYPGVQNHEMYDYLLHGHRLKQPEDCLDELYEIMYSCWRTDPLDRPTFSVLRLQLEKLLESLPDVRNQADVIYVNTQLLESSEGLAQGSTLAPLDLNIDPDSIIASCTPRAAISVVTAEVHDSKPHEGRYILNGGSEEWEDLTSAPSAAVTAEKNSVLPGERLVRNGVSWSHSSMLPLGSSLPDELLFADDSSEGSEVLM
The reply should be a number, written without any unit.

INSERT INTO results (sequence, readoutvalue) VALUES
  ('LSDVIYVILRK [PMP22_Y153_G150D]', 0.278);

Ask: Fill blank: measured phosphorylation enrichment of the sequence IFCIQYNIRAF [MYH4_Y820] is ____.
Reply: 0.436

Ask: Next entry: EASGIYVKSVI [PATJ_Y396_I400V]
Reply: 0.366

Ask: Here is the next sequence: GGSTFYIDTNA [ACTL6A_Y69_P66S_YF]
Reply: 0.477

Ask: Another: IALSKYGRVKW [FGF6_Y186_R191W]
Reply: 0.365

Ask: What would you report for NVFGNYNNQSS [HNRNPA1_Y318_D314V] ?
Reply: 0.289

Ask: Consider next the sequence NFHRGYHLQVL [CD200R1L_Y138] in the same way.
Reply: 0.351

Ask: Quick one: PFADPYFDFEI [ZC3H18_Y371_YF]
Reply: 0.638

Ask: Now consider GGDQPYSGAGD [TYRO3_Y828_R824G] and answer again.
Reply: 0.408

Ask: Again, but for RFLERYIYNPE [HLA-DPB1_Y57_R61P]
Reply: 1.5

Ask: Queued: LQEKSYIKGTS [LCTL_Y331]
Reply: 0.609

Ask: Now consider LLGFLYFFVCS [SLC34A2_Y109] .
Reply: 1.04

Ask: Param item: LGNIVYSSLCG [BCOR_Y90_P85L]
Reply: 2.66

Ask: Queued: SNMPTYSGHFS [GRIN2A_Y1224_T1229S]
Reply: 1.15

* * *

biological target: Jak2 (UniProt O60674); assay: phosphorylation enrichment, bacterial display (enrichment ratio); higher = better substrate or ligand; peptides without Tyr show the background
Sequence (O60674 whole entry, looked up): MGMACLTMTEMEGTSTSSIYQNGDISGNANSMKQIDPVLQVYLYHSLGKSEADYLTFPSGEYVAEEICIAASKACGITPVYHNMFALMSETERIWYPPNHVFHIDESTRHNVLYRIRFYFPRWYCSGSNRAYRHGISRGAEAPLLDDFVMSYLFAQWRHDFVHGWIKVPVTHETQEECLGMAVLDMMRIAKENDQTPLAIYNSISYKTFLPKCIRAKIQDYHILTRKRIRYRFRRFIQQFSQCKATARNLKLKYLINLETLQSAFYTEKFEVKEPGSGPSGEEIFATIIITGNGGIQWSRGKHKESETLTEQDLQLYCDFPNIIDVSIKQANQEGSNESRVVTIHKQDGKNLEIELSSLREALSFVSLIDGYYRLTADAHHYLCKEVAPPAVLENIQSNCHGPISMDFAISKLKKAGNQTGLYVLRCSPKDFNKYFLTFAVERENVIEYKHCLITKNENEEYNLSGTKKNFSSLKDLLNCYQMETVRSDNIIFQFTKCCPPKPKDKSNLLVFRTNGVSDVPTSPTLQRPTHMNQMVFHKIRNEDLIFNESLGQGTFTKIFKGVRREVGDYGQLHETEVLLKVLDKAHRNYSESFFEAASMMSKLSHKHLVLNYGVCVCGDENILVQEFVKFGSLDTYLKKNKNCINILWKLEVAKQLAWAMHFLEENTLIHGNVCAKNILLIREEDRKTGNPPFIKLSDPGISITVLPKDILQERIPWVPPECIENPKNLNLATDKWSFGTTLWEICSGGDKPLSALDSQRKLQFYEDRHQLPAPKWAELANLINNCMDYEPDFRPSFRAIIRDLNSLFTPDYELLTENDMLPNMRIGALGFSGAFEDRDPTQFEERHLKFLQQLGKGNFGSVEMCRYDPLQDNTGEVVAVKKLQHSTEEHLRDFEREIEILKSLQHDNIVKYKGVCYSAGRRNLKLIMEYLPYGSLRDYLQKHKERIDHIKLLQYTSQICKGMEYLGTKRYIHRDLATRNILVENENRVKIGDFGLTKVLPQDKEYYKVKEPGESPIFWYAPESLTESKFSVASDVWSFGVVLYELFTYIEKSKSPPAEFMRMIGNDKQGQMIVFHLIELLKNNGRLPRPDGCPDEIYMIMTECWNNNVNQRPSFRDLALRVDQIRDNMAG
measurementType: phosphorylation enrichment
The reply should be a number, written without any unit.

INSERT INTO results (sequence, measurementtype, readoutvalue) VALUES
  ('VFGVSYDEYRY [CFTR_Y512_I507V]', 'phosphorylation enrichment', 0.761),
  ('TGDFGYRTPGF [TNS2_Y668_A670T_YF]', 'phosphorylation enrichment', 0.526),
  ('SSKILYHIIKG [CDH17_Y489]', 'phosphorylation enrichment', 0.63),
  ('STLEVYRCHPP [IL21R_Y317_S318R]', 'phosphorylation enrichment', 1.03),
  ('DVFRQYASLTG [GANAB_Y379]', 'phosphorylation enrichment', 0.589);

Ask: Request the reported phosphorylation enrichment associated with STASGYSDVTD [DTX2_Y425]
Reply: 0.661

Ask: EFTAGYNVKFD [GPX4_Y123_A120T] ?
Reply: 0.9

* * *

biological target: Fyn (UniProt P06241); experiment: phosphorylation enrichment, bacterial display (enrichment ratio); higher = better substrate or ligand; peptides without Tyr show the background
Sequence (P06241 whole entry, looked up): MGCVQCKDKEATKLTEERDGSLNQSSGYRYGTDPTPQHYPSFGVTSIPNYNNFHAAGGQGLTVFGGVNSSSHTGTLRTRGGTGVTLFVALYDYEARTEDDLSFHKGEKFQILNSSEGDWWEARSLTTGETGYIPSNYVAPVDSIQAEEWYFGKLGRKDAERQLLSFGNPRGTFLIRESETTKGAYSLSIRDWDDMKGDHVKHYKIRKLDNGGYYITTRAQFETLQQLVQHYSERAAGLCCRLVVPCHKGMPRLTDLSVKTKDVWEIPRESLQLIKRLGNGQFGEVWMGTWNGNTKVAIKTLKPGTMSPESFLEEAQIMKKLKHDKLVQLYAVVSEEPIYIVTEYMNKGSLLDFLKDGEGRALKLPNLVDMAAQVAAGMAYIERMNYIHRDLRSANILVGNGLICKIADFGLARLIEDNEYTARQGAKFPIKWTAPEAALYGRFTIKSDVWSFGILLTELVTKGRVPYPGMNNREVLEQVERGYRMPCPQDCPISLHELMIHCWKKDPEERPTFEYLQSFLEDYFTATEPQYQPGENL
measurementType: phosphorylation enrichment
Just the number, please.

INSERT INTO results (sequence, testsystem, readoutvalue) VALUES
  ('SSPVPYLSPET [TJP1_Y931]', 'Fyn (UniProt P06241)', 0.541),
  ('TGEKPYECVQC [ZNF24_Y335]', 'Fyn (UniProt P06241)', 0.515),
  ('TTKAKYKTPIY [PLD2_Y573_T577I]', 'Fyn (UniProt P06241)', 0.771),
  ('KLPFPYDDPFS [GPX2_Y127_YF]', 'Fyn (UniProt P06241)', 0.545);

Ask: For the sequence shown here, RPQDGFRIVQH [PTPRT_Y1329_Y1329F] , give the reported phosphorylation enrichment.
Reply: 0.597

Ask: One more sequence: MRTMGYMPREM [CABP5_Y62_T65R]
Reply: 0.438

Ask: Input LAVNPYGPPDL
Reply: 0.708

Ask: And what about the sequence CTHDLYMFMRE [FGFR3_Y724_I726F] ?
Reply: 0.584

* * *

molecular target: Jak2 (UniProt O60674); test: phosphorylation enrichment, bacterial display (enrichment ratio); higher = better substrate or ligand; peptides without Tyr show the background
Below, each entry is listed alongside its reported phosphorylation enrichment.
The answer should be written as a number, with no unit following it.

Example entries begin here.
INSERT INTO assay_data (sequence, readoutvalue) VALUES
  ('IVGRLYRLLTE [SETX_Y1978_L1976R]', 0.954),
  ('LSGFGYRLSDQ [PDCD6_Y124]', 1.09),
  ('QGIYGYHHYMQ [UFSP2_Y287]', 1.36),
  ('RRIHSYRGHLC [VHL_Y112_W117C]', 0.821),
  ('SRGSSYSSIPK [FLNC_Y2625]', 0.498);

Ask: Give its phosphorylation enrichment value. Item: ALEQKYWALGQ [MAP1A_Y1555]
Reply: 0.886

Ask: # iterate: SNMPTYSGHFS [GRIN2A_Y1224_T1229S]
Reply: 0.662

Ask: Ok, now ENFSEYQEISV [HEMGN_Y150_A154S]
Reply: 1.14

Ask: Follow-up item: IGNGFYFRVFS [MYBPC3_Y1136_YF]
Reply: 1.43

Ask: Record: GKLIFYDLRGE [KARS1_Y145]
Reply: 0.823

Ask: One more sequence: KRLWDYGMSSS [F8_Y1728_E1723K]
Reply: 0.666

* * *

biological target: Jak2 (UniProt O60674); assay: phosphorylation enrichment, bacterial display (enrichment ratio); higher = better substrate or ligand; peptides without Tyr show the background
measurementType: phosphorylation enrichment
Just the number.

Below, 5 sequences whose answers are already recorded.
INSERT INTO results (sequence, readoutvalue) VALUES
  ('NKEPRYQEDPP [TJP2_Y479]', 0.832),
  ('FVHDNYVIWRT [CPS1_Y1450_R1453W]', 1.11),
  ('DGQSVYKLTDF [TBK1_Y153]', 0.765),
  ('ASMAKYFASGI [ACADSB_Y372_E376G_YF]', 0.566),
  ('IGVDSYSVCKR [RPS6KA3_Y433_G431D]', 0.462);

Ask: So what's the measured phosphorylation enrichment for this one? QLHRKYCLSPR [HJURP_Y445_E444K]
Reply: 0.527

Ask: What do we get for PCPANYFAFKI [FAM3D_Y65] ?
Reply: 8.15

Ask: Same again, this time with AMGAVYQAAAL [HYOU1_Y421]
Reply: 0.566

Ask: Now consider TTPGPHRSIFF [MPG_Y71_Y71H_YF] and answer again.
Reply: 0.449

Ask: Can you handle DTNIAYWLHPR [POMT1_Y581] next?
Reply: 0.813
